Test system: Candida albicans
method-summary: 50% inhibitory activity against Candida albicans (40 clinical isolates) determined at pH-5.8
Type: functional
Just a reminder that ties go to not met: only MIC50 strictly below 8 µg/mL counts as met.

Strictly below 8 µg/mL in MIC50? c1ccc(-c2c[nH]cc2C(c2ccccc2)n2ccnc2)cc1 (configuration not stated)
not met

Also, CC(=O)N1CCN(c2ccc(OC[C@H]3CO[C@](Cn4ccnc4)(c4ccc(Cl)cc4Cl)O3)cc2)CC1 please.
met

Also, Clc1ccc(C(c2c[nH]cc2-c2ccccc2)n2ccnc2)cc1Cl (configuration not stated) please.
not met

Also, Clc1ccc(C(c2c[nH]cc2-c2ccc(Cl)c(Cl)c2)n2ccnc2)cc1 (configuration not stated) please.
met

Also, Clc1ccc(-c2c[nH]cc2C(c2ccc(Cl)cc2Cl)n2ccnc2)cc1 (configuration not stated) please.
met

Also, Cc1ccc(C(c2c[nH]cc2-c2ccc(Cl)c(Cl)c2)n2ccnc2)cc1 (configuration not stated) please.
met

Also, Cc1ccc(C(c2c[nH]cc2-c2ccccc2Cl)n2ccnc2)cc1 (configuration not stated) please.
not met

Also, Fc1ccc(C(c2c[nH]cc2-c2ccc(Cl)cc2Cl)n2ccnc2)cc1 (configuration not stated) please.
met

Also, Clc1ccc(C(c2c[nH]cc2-c2ccc(Cl)c(Cl)c2)n2ccnc2)c(Cl)c1 (configuration not stated) please.
met

Also, Nc1ccc(C(c2c[nH]cc2-c2ccc(Cl)cc2)n2ccnc2)cc1 (configuration not stated) please.
not met

Also, Clc1ccc(-c2c[nH]cc2C(c2ccc(-n3cccc3)cc2)n2ccnc2)c(Cl)c1 (configuration not stated) please.
not met

Also, c1ccc(-c2c[nH]cc2C(c2ccc(-n3cccc3)cc2)n2ccnc2)cc1 (configuration not stated) please.
not met

Also, O=[N+]([O-])c1ccc(C(c2c[nH]cc2-c2ccc(Cl)cc2Cl)n2ccnc2)cc1 (configuration not stated) please.
not met

Also, Clc1ccc(-c2c[nH]cc2C(c2ccccc2)n2ccnc2)c(Cl)c1 (configuration not stated) please.
met

Also, Cc1ccc(C(c2c[nH]cc2-c2ccc(Cl)cc2)n2ccnc2)cc1 (configuration not stated) please.
not met

Also, Fc1ccc(C(c2c[nH]cc2-c2ccc(Cl)cc2)n2ccnc2)cc1 (configuration not stated) please.
not met

Also, Clc1ccc(-c2c[nH]cc2C(c2ccc(-n3cccc3)cc2)n2ccnc2)cc1 (configuration not stated) please.
not met

---

Test system: Candida
method-summary: 90% inhibitory activity against Candida. species (40 clinical isolates) determined at pH-7.2
Type: functional
readout-type: MIC90

For Candida, provide MIC90 of Clc1ccc(C(c2c[nH]cc2-c2ccccc2)n2ccnc2)c(Cl)c1 (stereo not given) please.
> 256 µg/mL

Also, Cc1ccc(C(c2c[nH]cc2-c2ccccc2Cl)n2ccnc2)cc1 (stereo not given) please.
32 µg/mL

Also, Clc1ccc(C(c2c[nH]cc2-c2ccccc2Cl)n2ccnc2)cc1Cl (stereo not given) please.
64 µg/mL

Also, Clc1ccc(C(c2c[nH]cc2-c2ccc(Cl)c(Cl)c2)n2ccnc2)cc1 (stereo not given) please.
64 µg/mL

Also, Clc1ccc(C(c2c[nH]cc2-c2ccc(Cl)c(Cl)c2)n2ccnc2)c(Cl)c1 (stereo not given) please.
32 µg/mL

Also, Cc1ccc(C(c2c[nH]cc2-c2ccc(Cl)c(Cl)c2)n2ccnc2)cc1 (stereo not given) please.
32 µg/mL

Also, Cc1ccc(C(c2c[nH]cc2-c2ccc(Cl)cc2)n2ccnc2)cc1 (stereo not given) please.
32 µg/mL

Also, Fc1ccc(C(c2c[nH]cc2-c2ccccc2Cl)n2ccnc2)cc1 (stereo not given) please.
256 µg/mL

Also, Clc1ccccc1-c1c[nH]cc1C(c1ccccc1)n1ccnc1 (stereo not given) please.
64 µg/mL

Also, Clc1ccc(C(c2c[nH]cc2-c2ccccc2Cl)n2ccnc2)cc1 (stereo not given) please.
16 µg/mL

---

System: Candida
method-summary: 90% inhibitory activity against Candida. species (40 clinical isolates) determined at pH-7.2
Format: functional
readout-type: MIC90 (µg/mL)
Field: numeric (µg/mL). Do not append units.

For Candida, provide MIC90 of Nc1ccc(C(c2c[nH]cc2-c2ccc(Cl)cc2)n2ccnc2)cc1 (stereo not given) please.
128

Also, Fc1ccc(C(c2c[nH]cc2-c2ccc(Cl)cc2)n2ccnc2)cc1 (stereo not given) please.
64

Also, Clc1ccc(-c2c[nH]cc2C(c2ccccc2)n2ccnc2)c(Cl)c1 (stereo not given) please.
32

---

System: Candida albicans
method-summary: 50% inhibitory activity against Candida albicans (40 clinical isolates) determined at pH-5.8
Type: functional
readout-type: MIC50 (µg/mL)
Field: numeric (µg/mL). Do not append units.

Bench note: what MIC50 did c1ccc(-c2ccc(C(c3ccccc3)n3ccnc3)cc2)cc1 (stereo unspecified) show?
4

Also, Clc1ccc(COC(Cn2ccnc2)c2ccc(Cl)cc2Cl)c(Cl)c1 (stereo unspecified) please.
0.5

Also, Fc1ccc(C(c2c[nH]cc2-c2ccc(Cl)c(Cl)c2)n2ccnc2)cc1 (stereo unspecified) please.
4

Also, Clc1ccc(C(c2c[nH]cc2-c2ccccc2Cl)n2ccnc2)c(Cl)c1 (stereo unspecified) please.
4

Also, Clc1ccc(-c2c[nH]cc2C(c2ccc(Cl)c(Cl)c2)n2ccnc2)c(Cl)c1 (stereo unspecified) please.
2

Also, Clc1ccc(-c2c[nH]cc2C(c2ccc(Cl)cc2Cl)n2ccnc2)c(Cl)c1 (stereo unspecified) please.
2

Also, O=[N+]([O-])c1ccc(C(c2c[nH]cc2-c2ccc(Cl)cc2)n2ccnc2)cc1 (stereo unspecified) please.
16

Also, O=[N+]([O-])c1ccc(C(c2c[nH]cc2-c2ccc(Cl)c(Cl)c2)n2ccnc2)cc1 (stereo unspecified) please.
256

Also, Nc1ccc(C(c2c[nH]cc2-c2ccccc2)n2ccnc2)cc1 (stereo unspecified) please.
128

Also, Clc1ccc(C(c2c[nH]cc2-c2ccc(Cl)cc2Cl)n2ccnc2)cc1 (stereo unspecified) please.
4

Also, Clc1ccc(-c2c[nH]cc2C(c2ccc(Cl)c(Cl)c2)n2ccnc2)cc1Cl (stereo unspecified) please.
8

Also, Fc1ccc(C(c2c[nH]cc2-c2ccccc2Cl)n2ccnc2)cc1 (stereo unspecified) please.
32

Also, Cc1ccc(C(c2c[nH]cc2-c2ccc(Cl)cc2Cl)n2ccnc2)cc1 (stereo unspecified) please.
8

Also, Clc1ccc(-c2c[nH]cc2C(c2cccc3ccccc23)n2ccnc2)cc1 (stereo unspecified) please.
4

Also, Clc1ccc(-c2c[nH]cc2C(c2ccc(-n3cccc3)cc2)n2ccnc2)cc1Cl (stereo unspecified) please.
128

Also, O=[N+]([O-])c1ccc(C(c2c[nH]cc2-c2ccccc2Cl)n2ccnc2)cc1 (stereo unspecified) please.
32

Also, Nc1ccc(C(c2c[nH]cc2-c2ccccc2Cl)n2ccnc2)cc1 (stereo unspecified) please.
64

Also, Clc1ccc(-c2c[nH]cc2C(c2ccc(-c3ccccc3)cc2)n2ccnc2)cc1 (stereo unspecified) please.
8

Also, Clc1ccc(-c2c[nH]cc2C(c2ccccc2)n2ccnc2)cc1 (stereo unspecified) please.
16

Also, Clc1ccc(-c2c[nH]cc2C(c2ccc(Cl)c(Cl)c2)n2ccnc2)cc1 (stereo unspecified) please.
4

---

System: Candida
method-summary: 90% inhibitory activity against Candida. species (40 clinical isolates) determined at pH-7.2
Assay type: functional
readout-type: MIC90 (µg/mL)
Field: numeric (µg/mL). Do not append units.

For Candida, provide MIC90 of Clc1ccc(-c2c[nH]cc2C(c2ccc(Cl)cc2)n2ccnc2)cc1 (stereo not given) please.
32

Also, Clc1ccc(C(c2c[nH]cc2-c2ccccc2)n2ccnc2)cc1Cl (stereo not given) please.
256

Also, Clc1ccc(COC(Cn2ccnc2)c2ccc(Cl)cc2Cl)c(Cl)c1 (stereo not given) [MICONAZOLE] please.
32

Also, Clc1ccc(-c2c[nH]cc2C(c2cccc3ccccc23)n2ccnc2)cc1 (stereo not given) please.
32

---

Tested on: Candida
method-summary: Inhibitory activity against Candida. species (40 clinical isolates), determined at pH-5.8
Type: functional
Consider the following compounds; for each one, report its MIC90.
Field: numeric (µg/mL). Do not append units.

Bench note: what MIC90 did Cc1ccc(C(c2c[nH]cc2-c2ccc(Cl)cc2)n2ccnc2)cc1 (configuration not stated) show?
32

Also, c1ccc(-c2c[nH]cc2C(c2ccccc2)n2ccnc2)cc1 (configuration not stated) please.
128

Also, Fc1ccc(C(c2c[nH]cc2-c2ccc(Cl)cc2Cl)n2ccnc2)cc1 (configuration not stated) please.
32

Also, Clc1ccc(-c2c[nH]cc2C(c2ccc(Cl)c(Cl)c2)n2ccnc2)c(Cl)c1 (configuration not stated) please.
16

Also, Fc1ccc(C(c2c[nH]cc2-c2ccccc2Cl)n2ccnc2)cc1 (configuration not stated) please.
64

Also, Clc1ccc(-c2c[nH]cc2C(c2ccccc2)n2ccnc2)c(Cl)c1 (configuration not stated) please.
32

---

Consider the following compounds; for each one, report its MIC90.
System: Candida
method-summary: 90% inhibitory activity against Candida. species (40 clinical isolates) determined at pH-7.2
Type: functional

Bench note: what MIC90 did Clc1ccccc1-c1c[nH]cc1C(c1ccc(-n2cccc2)cc1)n1ccnc1 (stereo not given) show?
64 µg/mL

Also, Clc1ccc(-c2c[nH]cc2C(c2ccc(Cl)c(Cl)c2)n2ccnc2)c(Cl)c1 (stereo not given) please.
32 µg/mL

Also, Clc1ccc(-c2c[nH]cc2C(c2ccc(-n3cccc3)cc2)n2ccnc2)c(Cl)c1 (stereo not given) please.
> 256 µg/mL

Also, Nc1ccc(C(c2c[nH]cc2-c2ccccc2Cl)n2ccnc2)cc1 (stereo not given) please.
256 µg/mL

Also, Fc1ccc(C(c2c[nH]cc2-c2ccc(Cl)cc2Cl)n2ccnc2)cc1 (stereo not given) please.
32 µg/mL

Also, Clc1ccc(-c2c[nH]cc2C(c2ccc(-n3cccc3)cc2)n2ccnc2)cc1 (stereo not given) please.
256 µg/mL

Also, Clc1ccc(-c2c[nH]cc2C(c2ccc(Cl)cc2Cl)n2ccnc2)c(Cl)c1 (stereo not given) please.
256 µg/mL

Also, Clc1ccc(-c2c[nH]cc2C(c2ccc(Cl)c(Cl)c2)n2ccnc2)cc1 (stereo not given) please.
64 µg/mL

Also, O=[N+]([O-])c1ccc(C(c2c[nH]cc2-c2ccc(Cl)cc2)n2ccnc2)cc1 (stereo not given) please.
64 µg/mL

Also, Clc1ccc(-c2c[nH]cc2C(c2ccccc2)n2ccnc2)cc1Cl (stereo not given) please.
16 µg/mL
